# test_details: Plasma pharmacokinetics of pracinostat
# Type: in vivo, human
# condition_parameters: human, plasma, po, 80 mg, Tmax, Day 1, 80 mg oral, n=3, mean±SD
measured_attribute: Tmax (h)
Enter your answer as a number in h; do not include the unit.

Tell me its Tmax given CCCCc1nc2cc(/C=C/C(=O)NO)ccc2n1CCN(CC)CC [Pracinostat] as the entry.
1.3

----------
# test_details: Plasma pharmacokinetics of pracinostat
# Assay type: in vivo, human
# condition_parameters: human, plasma, po, 100 mg, AUC0-inf, Day 15, 100 mg oral, n=3, mean±SD
measured_attribute: AUC(0-inf) (µg·h/mL)
Dear colleague, please return just the value in µg·h/mL, with no unit written.

In one line, give reported AUC(0-inf) of the entry CCCCc1nc2cc(/C=C/C(=O)NO)ccc2n1CCN(CC)CC .
1.99

----------
# test_details: Plasma pharmacokinetics of pracinostat
# Type: in vivo, human
# condition_parameters: human, plasma, po, 120 mg, t1/2, Day 15, 120 mg oral, n=2, mean
measured_attribute: half-life (min)
# value in min; strip the unit string

Return half-life for the following compound: CCCCc1nc2cc(/C=C/C(=O)NO)ccc2n1CCN(CC)CC
846

----------
# test_details: Plasma pharmacokinetics of pracinostat
# Type: in vivo, human
# condition_parameters: human, plasma, po, 80 mg, AUC0-inf, Day 1, 80 mg oral, n=3, mean±SD
measured_attribute: AUC(0-inf) (ng·h/mL)
Your answer should be a plain number; it is taken to be in ng·h/mL.

Input CCCCc1nc2cc(/C=C/C(=O)NO)ccc2n1CCN(CC)CC , output reported AUC(0-inf).
1050

----------
# test_details: Plasma pharmacokinetics of pracinostat
# Format: in vivo, human
# condition_parameters: human, plasma, po, 80 mg, Tmax, Day 15, 80 mg oral, n=3, mean±SD
measured_attribute: Tmax (h)
All answers are understood in h, so give the number only.

Give the reported value of Tmax for this record: CCCCc1nc2cc(/C=C/C(=O)NO)ccc2n1CCN(CC)CC
1.2

----------
# test_details: Plasma pharmacokinetics of pracinostat
# Assay type: in vivo, human
# condition_parameters: human, plasma, oral, 120 mg, prolonged t1/2 reaching, discussion summary
measured_attribute: half-life

Return the recorded half-life value; entry: CCCCc1nc2cc(/C=C/C(=O)NO)ccc2n1CCN(CC)CC
≤ 14 h

----------
# test_details: Plasma pharmacokinetics of pracinostat
# Type: in vivo, human
# condition_parameters: human, plasma, po, 120 mg, Tmax, Day 15, 120 mg oral, n=2, mean
measured_attribute: Tmax (h)
The reply should be a number in h, with the unit left off.

Consider the compound CCCCc1nc2cc(/C=C/C(=O)NO)ccc2n1CCN(CC)CC [Pracinostat] and give its recorded Tmax.
1

----------
# test_details: Plasma pharmacokinetics of pracinostat
# Type: in vivo, human
# condition_parameters: human, plasma, po, 120 mg, AUC0-inf, Day 15, 120 mg oral, n=2, mean
measured_attribute: AUC(0-inf)

Return value of AUC(0-inf) for input CCCCc1nc2cc(/C=C/C(=O)NO)ccc2n1CCN(CC)CC , no commentary.
757 ng·h/mL

----------
# test_details: Plasma pharmacokinetics of pracinostat
# Format: in vivo, human
# condition_parameters: human, plasma, po, 100 mg, t1/2, Day 15, 100 mg oral, n=3, mean±SD
measured_attribute: half-life (h)
Entry rule: numbers only, all in h.

# return recorded half-life for entry CCCCc1nc2cc(/C=C/C(=O)NO)ccc2n1CCN(CC)CC
13.7

----------
# test_details: Plasma pharmacokinetics of pracinostat
# Type: in vivo, human
# condition_parameters: human, plasma, po, 40 mg, Cmax, Day 15, 40 mg oral, n=5, mean±SD
measured_attribute: Cmax (ng/mL)
I only need the number, in ng/mL, no unit after it.

Please give measured Cmax of the following entry: CCCCc1nc2cc(/C=C/C(=O)NO)ccc2n1CCN(CC)CC [Pracinostat]
64

----------
# test_details: Plasma pharmacokinetics of pracinostat
# Format: in vivo, human
# condition_parameters: human, plasma, po, 120 mg, Cmax, Day 15, 120 mg oral, n=2, mean
measured_attribute: Cmax (ng/mL)
Respond numerically; units are ng/mL and should not be typed.

Provide only the value of recorded Cmax for CCCCc1nc2cc(/C=C/C(=O)NO)ccc2n1CCN(CC)CC [Pracinostat]
96

----------
# test_details: Plasma pharmacokinetics of pracinostat
# Assay type: in vivo, human
# condition_parameters: human, plasma, po, 120 mg, t1/2, Day 1, 120 mg oral, n=6, mean±SD
measured_attribute: half-life (h)
Field format: number, assumed h, no unit text.

State its half-life: CCCCc1nc2cc(/C=C/C(=O)NO)ccc2n1CCN(CC)CC
10.8

----------
# test_details: Plasma pharmacokinetics of pracinostat
# Assay type: in vivo, human
# condition_parameters: human, plasma, po, 100 mg, AUC0-inf, Day 1, 100 mg oral, n=3, mean±SD
measured_attribute: AUC(0-inf)
Write the figure, then the unit, nothing else.

Check the records and state AUC(0-inf) for CCCCc1nc2cc(/C=C/C(=O)NO)ccc2n1CCN(CC)CC [Pracinostat]
1170 ng·h/mL

----------
# test_details: Plasma pharmacokinetics of pracinostat
# Assay type: in vivo, human
# condition_parameters: human, plasma, po, 60 mg, AUC0-inf, Day 1, 60 mg oral, n=3, mean±SD
measured_attribute: AUC(0-inf) (ng·h/mL)
Hi! Could you send only the number? It should be in ng·h/mL, unit omitted.

State its AUC(0-inf): CCCCc1nc2cc(/C=C/C(=O)NO)ccc2n1CCN(CC)CC
948

----------
# test_details: Plasma pharmacokinetics of pracinostat
# Assay type: in vivo, human
# condition_parameters: human, plasma, po, 40 mg, t1/2, Day 15, 40 mg oral, n=5, mean±SD
measured_attribute: half-life (h)
Dear colleague, please return just the value in h, with no unit written.

Determine from records and report half-life for CCCCc1nc2cc(/C=C/C(=O)NO)ccc2n1CCN(CC)CC [Pracinostat]
10.7

----------
# test_details: Plasma pharmacokinetics of pracinostat
# Assay type: in vivo, human
# condition_parameters: human, plasma, po, 100 mg, Tmax, Day 15, 100 mg oral, n=3, mean±SD
measured_attribute: Tmax (h)
Respond with the bare value in h.

For the compound CCCCc1nc2cc(/C=C/C(=O)NO)ccc2n1CCN(CC)CC [Pracinostat] , give its reported Tmax.
1
